System: tetA promoter (PtetA)-lacZ reporter in E. coli KM3
Assay type: cell-based
assay.conditions: Table 6, reverse repressor hits; tribenuron, same plate assay format as Table 4
endpoint.label: relative β-galactosidase activity, inducer Tb
Returns: the value as a bare number; no unit string appended.

molecule	observed
L1-39: library L1 reverse repressor hit (SEQ ID NO: 1206-1213) (protein, rSuR L1-39) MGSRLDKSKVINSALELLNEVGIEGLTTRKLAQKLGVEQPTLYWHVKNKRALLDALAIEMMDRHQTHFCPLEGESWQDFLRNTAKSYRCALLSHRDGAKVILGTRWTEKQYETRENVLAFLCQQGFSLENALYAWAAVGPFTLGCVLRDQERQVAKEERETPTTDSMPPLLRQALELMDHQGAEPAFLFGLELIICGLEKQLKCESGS	0.97

Shifting focus to the molecule that follows.
Input: Reported relative β-galactosidase activity, inducer Tb for L1-36: library L1 reverse repressor hit (SEQ ID NO: 1206-1213) (protein, rSuR L1-36) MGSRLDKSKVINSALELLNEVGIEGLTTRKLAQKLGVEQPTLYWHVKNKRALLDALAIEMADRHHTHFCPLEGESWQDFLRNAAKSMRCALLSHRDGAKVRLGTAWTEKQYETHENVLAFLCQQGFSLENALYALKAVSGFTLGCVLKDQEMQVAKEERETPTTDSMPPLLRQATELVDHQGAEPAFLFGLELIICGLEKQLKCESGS : what is it?
Output: 0.57

Every entry's value here was drawn from patent US8580556B2.
